Where do these numbers come from? They come from patent US6482827B1.

assay: Aqueous solubility; format: physicochemical; conditions: water; 25° C., Conditions B
MEASUREMENT TYPE: solubility

COMPOUND STRUCTURE STRING | solubility
CC(C)C[C@@H](C(=O)N1CCCCC1)[C@@H](C(=O)NO)N(C)C | > 6000 µg/mL
COc1ccc(CCC[C@@H](C(=O)N2CCCCC2)[C@H](N)C(=O)NO)cc1 | > 9600 µg/mL
N[C@H](C(=O)NO)[C@@H](CC1CCCC1)C(=O)N1CCN(Cc2ccc3c(c2)OCO3)CC1 | 7100 µg/mL
N[C@H](C(=O)NO)[C@@H](CC1CCCC1)C(=O)N1CCCCC1 | > 8200 µg/mL

Okay, next one:
query: Which measured solubility value corresponds to "COc1ccc(CCC[C@@H](C(=O)N2CCOCC2)[C@H](N)C(=O)NO)cc1" ?
result: > 9600 µg/mL
